Tested on: hypoxic pulmonary hypertension model rats
Assay: Hypoxic pulmonary hypertension model rats, oral (gavage) treatment for 28 days
Assay type: in vivo, SD rats
Settings: hypoxic PAH rats, 200 mg/kg, po
Procedure: An animal model of pulmonary hypertension in SD rats was established in a hypoxic and low-pressure environment, and compound 1 was administered by gavage at the same time for treatment. The rat pulmonary artery hemodynamics and right heart hypertrophy index RVHI were measured to determine whether compound 1 has effects of improving hypoxic pulmonary hypertension. […]
For each entry below, report its RVHI value.

QUERY: For the compound shown here, COc1cccc(C(O)CO)c1 (stereo not drawn) , give the reported RVHI.
RESULT: 0.296 ± 0.027

QUERY: Thanks! And CCc1cccc(C(CO)OC2OC(CO)C(O)C(O)C2O)c1 (stereo not drawn) ?
RESULT: 0.365 ± 0.031

QUERY: Thanks! And OCC(O)c1cccc(F)c1 (stereo not drawn) ?
RESULT: 0.261 ± 0.037

QUERY: Thanks! And CCc1ccccc1C(O)CO (stereo not drawn) ?
RESULT: 0.271 ± 0.038

QUERY: Thanks! And CCc1cccc(C(COC(C)=O)OC(C)=O)c1 (stereo not drawn) ?
RESULT: 0.303 ± 0.0632

QUERY: Thanks! And CCc1cccc(C(O)CO)c1 (stereo not drawn) ?
RESULT: 0.254 ± 0.022

Every entry's value here was drawn from patent US12180146B2.
